Origin of values: patent US20020058247A1

Biological target: T1, Full length recombinant HBcAg (rHBcAg) encompassing residues 1-183 (hepatitis B virus, UniProt P03146 1-183)
T1 construct: range 1-183; also called hepatitis B virus core antigen
T1 sequence (P03146 whole entry, the tested form may be a part): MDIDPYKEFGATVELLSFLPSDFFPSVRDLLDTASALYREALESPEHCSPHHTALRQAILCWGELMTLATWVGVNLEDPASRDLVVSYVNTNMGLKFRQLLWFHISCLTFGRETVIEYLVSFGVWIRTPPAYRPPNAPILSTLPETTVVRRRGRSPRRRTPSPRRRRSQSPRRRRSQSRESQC
Assay: EIA, peptide coated 50 ug/ml, HBcAg 10 ug/ml
Documented OD across a set of binders

# binder, unit-label, OD
data = [
    ("VKPGASVKLSCKASGYIFTS (also called Peptide # 2; Pept. #2) [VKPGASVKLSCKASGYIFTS (SEQ. ID. No. 5)]", "OD", 1.22),
    ("CKASGYSFTGYNMNWVKQSH (also called Peptide # 26) [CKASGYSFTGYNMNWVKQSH (SEQ. ID. No. 29)]", "OD", 0.198),
    ("LAVSLGQRATISCRASQSVS [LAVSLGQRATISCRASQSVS (SEQ. ID. No. 16)]", "OD", 0.434),
    ("VKPGASVKISCKASGYSFTG (also called Peptide # 25) [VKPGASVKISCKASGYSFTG (SEQ. ID. No. 28)]", "OD", 0.766),
    ("ISCRASQSVSTSSYSYMHWY [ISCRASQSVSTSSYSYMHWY (SEQ. ID. No. 17)]", "OD", 0.569),
    ("YNMNWVKQSHGKSLEWIGNI (also called Peptide # 27) [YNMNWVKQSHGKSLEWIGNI (SEQ. ID. No. 30)]", "OD", 0.17),
]
